Cited source for all entries: patent EP0319986B1

# Method notes: in vivo
# Test settings: mouse, iv
Metric name: LD50 at 168 h (mg/kg)
Numbers only here, please. The scale is mg/kg.

Reported LD50 at 168 h ( CN1C[C@H](O)[C@@H](O)[C@H](O)[C@H]1CO [Compound No. 2, N-methylmoranoline] ) = 5090

====

# Method notes: Test on acute toxicity
# Test settings: mouse, in vivo, po
Metric name: LD50 at 168 h (mg/kg)
Entry rule: numbers only, all in mg/kg.

According to the records, this compound OC[C@H]1NC[C@H](O)[C@@H](O)[C@@H]1O displays LD50 at 168 h of 7500

====

Assignment: determine reported Diameter (mm) of the circle due to fibrinolysis for the given compounds.
# System: CPAE (calf pulmonary artery endothelia)
# Method notes: Thrombolytic test in vitro: CPAE culture supernatant on fibrin plate, lysis circle
# Assay type: cell-based
# Test settings: 5 µl of 0.2 mg/ml compound solution per well of CPAE cells, 72 hours; 5 µl supernatant on fibrin plate with plasminogen, 4 hours; 4 mm or more = thrombolytic ability induced
Structures can show the parent of a compound that is named as a salt.
Quick note: give the figure in mm, leave out the unit.

The compound listed as CC(=Cc1ccccc1)CN1C[C@H](O)[C@@H](O)[C@H](O)[C@H]1CO shows Diameter (mm) of the circle due to fibrinolysis equal to 7.1

The recorded Diameter (mm) of the circle due to fibrinolysis for OC[C@@H]1[C@@H](O)[C@H](O)[C@@H](O)CN1CCCOc1ccccc1 [Compound No. 17, N-(3-Phenoxypropyl)moranoline tosylate] is 7.5

Reported Diameter (mm) of the circle due to fibrinolysis for CCOC(=O)c1ccc(OCCN2C[C@H](O)[C@@H](O)[C@H](O)[C@H]2CO)cc1 was 6.9

Record COc1cccc(C(C)=CCCN2C[C@H](O)[C@@H](O)[C@H](O)[C@H]2CO)c1 . Reported Diameter (mm) of the circle due to fibrinolysis: 7.6

Reported Diameter (mm) of the circle due to fibrinolysis for CC(C)Oc1ccc(C=CCN2CC(O)C(O)C(O)C2CO)cc1 (stereo not drawn) was 7.6

Item: CNC(=O)CCCCCCCCCCN1C[C@H](O)[C@@H](O)[C@H](O)[C@H]1CO | Diameter (mm) of the circle due to fibrinolysis: 8.5

The compound OC[C@@H]1[C@@H](O)[C@H](O)[C@@H](O)CN1CCC1CCCC1 showed Diameter (mm) of the circle due to fibrinolysis equal to 5.8

Noted for CC(C)=CCCC(C)=CCCC(C)=CCN1CC(O)C(O)C(O)C1CO (stereo not drawn) [Compound No. 26, N-Farnesylmoranoline tosylate] : its Diameter (mm) of the circle due to fibrinolysis reads 5.7

Value of Diameter (mm) of the circle due to fibrinolysis reported for the compound CCN1C[C@H](O)[C@@H](O)[C@H](O)[C@H]1CO is 6.5
